# PROCEDURE_DETAILS: Human HepG2 cell viability assay in 384 well format
# Type: toxicity, cell-based
# Design: dose 125 nL, time 70.5 hour; concentration not given beside the values
# TEST_SETTINGS: HepG2 cells, read-out: Inhibition
QUANTITY_NAME: cytotoxicity at 70.5 h (%)
Expressed in %, but write only the number.

Example results:
MOLECULE	UOM	cytotoxicity at 70.5 h
Cc1ncc2c(n1)CN(Cc1nnc(Cc3ccccc3)o1)CC2	%	-3.37
CNc1cnc(CC2COCCN(CCOc3ccccc3)C2)cn1 (stereo unspecified)	%	-1.63
COCCOCC(=O)Nc1ccc(F)cc1C	%	11.3
COC(=O)c1cccc(S(=O)(=O)NCc2cccnc2N(C)C)c1	%	-2.85
Cc1nc(C2CCCNC2)cc(N(Cc2c(C)nn(C)c2C)C2CC2)n1 (stereo unspecified)	%	-0.0304

API: the following record is the query input.
Given the molecule CC(=O)N1CCCN(C(=O)c2cnc(OC(C)C)c(Cl)c2)CC1 , write its reported cytotoxicity at 70.5 h.
-11.9

* * *

# PROCEDURE_DETAILS: Human HepG2 cell viability assay in 384 well format
# Assay type: toxicity, cell-based
# Set-up: dose 125 nL, time 70.5 hour; concentration not given beside the values
# TEST_SETTINGS: HepG2 cells, read-out: Inhibition
QUANTITY_NAME: cytotoxicity at 70.5 h (%)
Expressed in %, but write only the number.

Example results:
COMPOUND	UOM	cytotoxicity at 70.5 h
CCCNC(=O)c1ccc(S(=O)(=O)NC2(COC)CCCC2)cc1	%	-5.28
COc1ccccc1C1=NOC(CC2(C(=O)O)CCOCC2)C1 (stereo unspecified)	%	19.1
O=C(c1coc(COc2cccc3cnccc23)n1)N1CCCCCC1	%	-1.27
Cn1ccnc1CN1CCC2(CCCN2c2ncccn2)CC1	%	-0.454
Cn1cc(CNc2ncnc3c2CCN(Cc2ccsc2)CC3)cn1	%	0.199

Given the compound CCS(=O)(=O)N1C[C@H]2C[C@H](C(=O)N(C)C)[C@@H](C1)O2 , write its reported cytotoxicity at 70.5 h.
-19.2

* * *

# PROCEDURE_DETAILS: Human HepG2 cell viability assay in 384 well format
# Type: toxicity, cell-based
# Design: dose 125 nL, time 70.5 hour; concentration not given beside the values
# TEST_SETTINGS: HepG2 cells, read-out: Inhibition
QUANTITY_NAME: cytotoxicity at 70.5 h (%)
Expressed in %, but write only the number.

Example results:
MOLECULE	UOM	cytotoxicity at 70.5 h
COCCNC(=O)Nc1ccc(CN2CCOC2=O)cc1	%	-7
CN(Cc1nccn1CC(F)(F)F)C(=O)c1ccc(F)c(F)c1	%	-1.82
Cn1cc(-c2cc(C(F)(F)F)n(CCCN)n2)cn1	%	20

Given the molecule CCN1CCCC1CNC(=O)Cc1c(C)n[nH]c1-c1ccc(F)cc1 (configuration not stated) , write its reported cytotoxicity at 70.5 h.
22.5

Given the molecule CC(C)c1nn(C)c(N(C)C)c1CNCc1cccc(CN(C)C)c1 , write its reported cytotoxicity at 70.5 h.
0.875

Given the molecule O=C1C(Nc2ccc3nccnc3n2)CCN1c1ccccc1 (configuration not stated) , write its reported cytotoxicity at 70.5 h.
-6.11

* * *

# PROCEDURE_DETAILS: Human HepG2 cell viability assay in 384 well format
# Format: toxicity, cell-based
# Set-up: dose 125 nL, time 70.5 hour; concentration not given beside the values
# TEST_SETTINGS: HepG2 cells, read-out: Inhibition
molecules and their reported cytotoxicity at 70.5 h
Expressed in %, but write only the number.

Example results:
MOLECULE	QUANTITY_NAME	REPORTED_MEASUREMENT
CC(NCc1nnc2n1CCCC2)c1nc(-c2cccs2)no1 (stereo not drawn)	cytotoxicity at 70.5 h	2.78
Cc1cc(C)n(C2CCCN(C(=O)CCCNc3ncccn3)C2)n1 (stereo not drawn)	cytotoxicity at 70.5 h	27.5
O=C(COCC1CCCO1)N(Cc1cccnc1)c1ccc(F)cc1 (stereo not drawn)	cytotoxicity at 70.5 h	2.18
Cc1cccnc1CSCCCNS(C)(=O)=O	cytotoxicity at 70.5 h	-5.33
Cc1ncc(CNC(=O)CCc2cccc(F)c2)c(C2CCCN2C)n1 (stereo not drawn)	cytotoxicity at 70.5 h	-2.51

Given the molecule CCN(CC)S(=O)(=O)NCCc1cc(C)ccc1OC , write its reported cytotoxicity at 70.5 h.
-15.7

Given the molecule Cc1noc(C)c1C(=O)NCc1ccnc(OCC(F)(F)F)c1 , write its reported cytotoxicity at 70.5 h.
-0.701

Given the molecule CC(C)Oc1ccc(C(=O)N2CCCSCC2CN(C)C)cc1 (stereo not drawn) , write its reported cytotoxicity at 70.5 h.
26.1

Given the molecule Fc1cccc(N2CCCC3(CN(Cc4ccncc4)CCO3)C2)c1 (stereo not drawn) , write its reported cytotoxicity at 70.5 h.
-4.69

Given the molecule CC1c2ncc(CN3CCN(C)CC3)n2CCN1CC1CC1 (stereo not drawn) , write its reported cytotoxicity at 70.5 h.
-11.9

Given the molecule CCCS(=O)(=O)N1C[C@@H]2CN(Cc3cnn(C)c3)CCO[C@@H]2C1 , write its reported cytotoxicity at 70.5 h.
-1.12
